Each entry below carries its recorded OD450 absorbance.
target under test: T1, QIEKLVEAKSQIQ
T1 construct: member of the group m41; position 504 is glycine in SEMG2 and the sheet prints alanine there
T1 peptide: QIEKLVEAKSQIQ
method notes: ELISA, immobilized peptide QIEKLVEAKSQIQ

Worked cases, OD450 absorbance given:
MM02 (antibody, IgG2b, V domains shown) VH: QIQLVQSGPEVKKPGETVRISCKASGYTLTTAGIQWVQKMPGKGLKWIGWINTHSGVPEYAEDFKGRFAFFLETSASTAYLQISNLKNEDTATYFCARLGLLGYWGQGTTLTVSS VL: DILLTQSPAILSVSPGERVSFSCRASQSIGTTIHWYQQRTNGSPRLLIKYASESISGIPSRFSGSGSGTDFTLSINSVESEDIADYYCQQSNSWPWTFGGGTKLEIKR; 0.766
MM14 (antibody, IgG2b, V domains shown) VH: QVQLKESGPGLVAPSQSLSITCTVSGFSLTSYAVSWVRQPPGKGLEWLGIIWGDGSTNYHSALISRLSISKDNSKSQVFLKLNSLQTDDTATYYCAKQERFSDGYYDGFAYWGQGTLVTVSA VL: QIVLTQSPAIMSASPGEKVTITCSASSSVSYMHWFQQKPGTSPKLWIYSTSNLASGVPARFSGSGSGTSYSLTISRMEAEDAATYYCQQRSSYPFTFGSGTKLEIKR; 0.47

Ask: Using the record for MM05 (antibody, IgG1, V domains shown) VH: QVQLQQPGAELVRPGASVKLSCEASGYTFTSYWMNWVKQRPGQGLEWIGMIDPSDSETHYNQMFKDKATLTVDKSSSTAYMQLSSLTSEDSAVYYCARYLGGKEGSFDYWGQGTTLTVSS VL: DIVMSQSPSSLAVSAGEKVTMSCKSSQSLLNSRTRKNYLAWYQQKPGQSPKLLIYWASTRESGVPDRFTGSGSGTDFTLTISSVQAEDLAVYYCKQSYSLPWTFGGGTKLEIKR , report its OD450 absorbance.
Reply: 0.723

Ask: Again, but for MM07 (antibody, V domains shown, The VH and VL begin with what look like leader peptides (MDWLW..., MVSSAQ...)) VH: QIQLVQSGPELKKPGETVRISCKASGYTLTTAGMQWVQKIPGKGLKWIGWINTHSGVAEFAEDFKGRFAFSLETSANTAYLQIRNLKNEDTATYFCARLGLLGYWGQGTTLTVSS VL: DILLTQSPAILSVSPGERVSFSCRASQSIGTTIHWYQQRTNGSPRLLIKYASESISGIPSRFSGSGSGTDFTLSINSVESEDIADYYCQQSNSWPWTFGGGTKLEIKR
Reply: 0.58
